Test system: A498
Test: NCI tumour cell line growth inhibition, 48 h
Activity calls are given as the source filed them. Rule as the data show it: active = GI50 up to about 1.1 µM and inactive = higher. Peptide text beside a SMILES is read from it. * marks the point of attachment. Cbz = O=C(OCc1ccccc1)*; CH2Cl = ClC*
Readout Kind: GI50

compound=Cc1ccc(C)c(COCCOCn2ccc(N)nc2=O)c1 assay_system=A498 obs_value="> 100 µM (inactive)"
compound=CN(C)c1[se]nc2c1c(=O)n(C)c(=O)n2C assay_system=A498 obs_value="> 100 µM (inactive)"
compound=O=C1Nc2ccccc2/C1=N/NC(=O)c1ccccc1O assay_system=A498 obs_value="23.5 µM (inactive)"
compound=CC(C)OP(=O)(OC(C)C)/C(I)=N/Nc1ccc([N+](=O)[O-])cc1 assay_system=A498 obs_value="> 100 µM (inactive)"
compound="CC(C)CC(NC(=O)OCc1ccccc1)C(=O)NC(Cc1ccccc1)C(=O)CCl (stereo not drawn) (Cbz-Leu-Phe-CH2Cl; configuration not given here)" assay_system=A498 obs_value="23.6 µM (inactive)"

Could you now look at the following compound, please?
Can you look up GI50 on A498 for O=C(Nc1c(O)[nH]c(=S)[nH]c1=O)c1ccccc1 ?
> 100 µM (inactive)

* * *

System: Malme-3M
Test: NCI tumour cell line growth inhibition, 48 h
Activity calls are given as the source filed them. Rule as the data show it: active = GI50 up to about 1.1 µM and inactive = higher.
Consider the following molecules and their measured GI50 readings.

Below, each entry is followed by its recorded GI50 result.
molecule=COC(=O)/N=[N+](\[O-])C(c1ccc(Cl)cc1)c1ccc(Cl)cc1 readout_kind=GI50 obs_value="51.9 µM (inactive)"
molecule="C=CCC1(O)C(=O)OC2C(O)COC21O (configuration not stated)" readout_kind=GI50 obs_value="> 100 µM (inactive)"
molecule=CC[C@@H]1CC[C@@H]2[C@H](CC[C@]3(C)[C@@H](OC(C)=O)CC[C@@H]23)[C@H]1C(=O)OC readout_kind=GI50 obs_value="17.3 µM (inactive)"

Here is the next item to consider.
Fill in the recorded GI50 for this molecule, with Malme-3M as test system: C[N+]12CCCCC1C(CN1C(=O)Cc3c4ccccc4c(c4ccccc34)CC1=O)CCC2 (configuration not stated)
> 100 µM (inactive)

* * *

Tested on: M19-MEL
Assay: NCI tumour cell line growth inhibition, 48 h
Calls of active or inactive are those of the source. Cut-off read from the data, not from the text of the source: active = GI50 up to about 1.1 µM and inactive = higher.
Form entry, call: pick from y for active, n for inactive

For orientation, consider the following solved cases.
compound=CN(C)CCNC(=O)c1cccc2c(Nc3ccc(S(=O)(=O)N=C(N)N)cc3)c3ccccc3nc12 assay_system=M19-MEL answer_label=n
compound="COc1cccc2c1[C@H]1OC(=O)NC1CCCCC2 (stereo partly specified)" assay_system=M19-MEL answer_label=n
compound=O=C(O)c1cc2sc(C(=O)O)cc2s1 assay_system=M19-MEL answer_label=n
compound=C=Cc1ccc(C)[n+](C[Si](C)(C)O[Si](C)(C)C[n+]2cc(C=C)ccc2C)c1 assay_system=M19-MEL answer_label=n
compound=Cc1cc2c(=O)c3ccc(Cl)cc3[nH]c2c(C(=O)O)c1C assay_system=M19-MEL answer_label=n
compound=CN[C@H](C)[C@@H](OC)c1ccccc1 assay_system=M19-MEL answer_label=n
compound=COc1ccc2c(C(=O)O)cc3ccccc3c2c1OC assay_system=M19-MEL answer_label=n
compound="CCCCCCCCCCCCCCCCCCNC(=O)OCC(CNS(=O)(=O)CCC[n+]1cccc2ccccc21)COC (stereo unspecified)" assay_system=M19-MEL answer_label=n
compound=C/C(=N\NC(=S)N1CCN(c2ccccn2)CC1)c1ccccn1 assay_system=M19-MEL answer_label=y
compound=O=C(CNc1nncs1)NO assay_system=M19-MEL answer_label=n

Please find the next compound below.
Recorded call for CC(=O)/C=C/c1ccc(C2CC(C)=Nc3c(ccc4c3C(=O)c3ccccc3C4=O)N2)cc1 (stereo unspecified) ?
n
